# measured-target: GLP-1 Receptor (Homo sapiens (Human))
# Sequence (P43220 24-463): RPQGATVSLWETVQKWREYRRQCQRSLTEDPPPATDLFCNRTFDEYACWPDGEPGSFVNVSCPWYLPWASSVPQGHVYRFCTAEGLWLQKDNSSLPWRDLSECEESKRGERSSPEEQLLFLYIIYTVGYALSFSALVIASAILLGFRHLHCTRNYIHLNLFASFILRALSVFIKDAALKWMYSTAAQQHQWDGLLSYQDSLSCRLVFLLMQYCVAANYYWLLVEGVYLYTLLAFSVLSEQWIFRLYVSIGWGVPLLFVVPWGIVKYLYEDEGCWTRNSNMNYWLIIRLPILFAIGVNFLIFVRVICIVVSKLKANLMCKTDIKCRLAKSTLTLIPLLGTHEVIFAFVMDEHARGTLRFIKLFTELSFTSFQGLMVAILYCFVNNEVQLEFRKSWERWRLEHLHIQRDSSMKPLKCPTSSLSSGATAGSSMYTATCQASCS
# test: GLP-1R agonist cAMP stimulation assay (HEK293/GLP1R/CRE-LUC cells)
# study-conditions: 30 min incubation, read-out: GLP1R cAMP Stimulation DR: EC50
pEC50: −log10 of the molar value.
observable: pEC50

Would you please look over these solved cases?
compound: CC1(c2ccc(Cl)cc2)COc2c(cccc2C2CCN(Cc3nc4ccc(C(=O)O)nc4n3C[C@@H]3CCO3)CC2)O1 (some centres unmarked) [Compound 128a]
pEC50: 7.70 to 9.70
--
compound: O=C(O)c1ccc2nc(CN3CCN(c4cccc5c4OCC(c4ccc(Cl)cc4F)O5)CC3)n(C[C@@H]3CCO3)c2n1 (some centres unmarked) [Compound 108a]
pEC50: 7.70 to 9.70
--
compound: O=C(O)c1ccc2nc(CN3CCC(c4cccc5c4OCC(c4ccc(Cl)cc4)O5)CC3)n(C[C@@H]3CCO3)c2n1 (some centres unmarked) [Compound 111a]
pEC50: ≥ 9.70
--
compound: CC1(c2ccc(Cl)cc2F)COc2c(cccc2C2CCN(Cc3nc4ccc(C(=O)O)nc4n3C[C@@H]3CCO3)CC2)O1 (some centres unmarked) [Compound 127a]
pEC50: 7.70 to 9.70
--
compound: C[C@H]1CN(c2cccc3c2OCC(c2ccc(Cl)cc2)O3)CCN1Cc1nc2ccc(C(=O)O)nc2n1C[C@@H]1CCO1 (some centres unmarked) [Compound 114a]
pEC50: 7.70 to 9.70
--
compound: O=C(O)c1ccc2nc(CN3CCC(c4cccc5c4OCC(c4ccc(Cl)cc4F)N5)CC3)n(C[C@@H]3CCO3)c2n1 (some centres unmarked) [Compound 124a]
pEC50: 7.70 to 9.70
--
compound: O=C(O)c1ccc2nc(CN3CCC(c4cccc5c4OC[C@H](c4ccc(Cl)cc4)O5)CC3)n(C[C@@H]3CCO3)c2n1 [Compound 111c]
pEC50: 6.70 to 7.70
--
compound: O=C(O)c1ccc2nc(CN3CCC(c4cccc5c4OC[C@H](c4ccc(Cl)cc4F)O5)CC3)n(C[C@@H]3CCO3)c2n1 [Compound 104c]
pEC50: 6.70 to 7.70

Problem: Param item = O=C(O)c1ccc2nc(CN3CCC(c4cccc5c4OCC(c4ccccc4)O5)CC3)n(C[C@@H]3CCO3)c2n1 (some centres unmarked) [Compound 101a] ; retrieve measured pEC50.
Solution: 7.70 to 9.70

Problem: Param item = O=C(O)c1ccc2nc(CN3CCC(c4cccc5c4OCC(c4ccc(C(F)(F)F)cc4)O5)CC3)n(C[C@@H]3CCO3)c2n1 (some centres unmarked) [Compound 119a] ; retrieve measured pEC50.
Solution: ≥ 9.70

Problem: Param item = O=C(O)c1ccc2nc(CN3CCC(c4cccc5c4OCC(c4ccc(Cl)c(F)c4)O5)CC3)n(C[C@@H]3CCO3)c2n1 (some centres unmarked) [Compound 113a] ; retrieve measured pEC50.
Solution: 7.70 to 9.70

Problem: Param item = N#Cc1ccc(C2COc3c(cccc3C3CCN(Cc4nc5ccc(C(=O)O)nc5n4C[C@@H]4CCO4)CC3)O2)cc1 (some centres unmarked) [Compound 118a] ; retrieve measured pEC50.
Solution: ≥ 9.70

Problem: Param item = O=C(O)c1ccc2nc(CN3CCC(c4cccc5c4OC[C@@H](c4ccc(Cl)cc4)O5)CC3)n(C[C@@H]3CCO3)c2n1 [Compound 111b] ; retrieve measured pEC50.
Solution: ≥ 9.70

FYI, the data here is from patent US20250214999A1.
